PROTOCOL: Pharmacokinetics in SD rats
Format: in vivo
EXPERIMENTAL_CONDITIONS: male, SD, rat, plasma, iv, IV Inf (15 minutes); read-out: T1/2 (converted)
Starred links: 1 amine or outer side, 2 acyl side, 3 side chain; linkers in the order of their positions; H or OH if unused. Positions of bridges follow the written chain, without caps; N, C: chain ends. Non-standard residues stand in square brackets, D forms with d. Chains are numbered I, II in the order given. ξ: configuration not given here. X1 = O=C(CCOCCOCCOCCN(CCOCCOCCOCCn1cc(CCC(=O)[*:2])nn1)CCOCCOCCOCCn1cc(CCC(=O)[*:3])nn1)[*:1]; X3 = O=C(CCc1cn(CCOCCOCCOCCN(CCOCCOCCOCCC(=O)[*:3])CCOCCOCCOCCn2cc(CCC(=O)[*:2])nn2)nn1)[*:1]; TATA = O=C(CC[*:1])N1CN(C(=O)CC[*:2])CN(C(=O)CC[*:3])C1; d1Nal = N[C@H](Cc1cccc2ccccc12)C(=O)O; ξDip = NC(C(=O)O)C(c1ccccc1)c1ccccc1; Hyp = O=C(O)[C@@H]1C[C@@H](O)CN1; hArg = N=C(N)NCCCC[C@H](N)C(=O)O; tBuAla = CC(C)(C)C[C@H](N)C(=O)O; Cba = N[C@@H](CC1CCC1)C(=O)O; Nle = CCCC[C@H](N)C(=O)O; ξP = O=C(O)C1CCCN1
PARAMETER_MEASURED: half-life (h)
Give the value, in units of h, as a plain number.

[
  {
    "SUBSTANCE": "I: A[hArg]DC[Hyp]LVNPLCLEP[d1Nal]WTC-NH2 / II: Ac-C[tBuAla]PE[dK]PYCFADPY[Nle]CA-NH2 / III: Ac-C[tBuAla]PE[dK]PYCFADPY[Nle]CA-NH2 (linker I:4-I:11-I:18, II:1-II:8-II:15, III:1-III:8-III:15 via TATA; linker I:N-II:5-III:5 via X1) [BCY13272]",
    "half-life, h": 2.5
  }
]

Task: Give half-life for the following substance: I: A[hArg]DC[Hyp][Cba]VN[ξP]LCLHP[dD]W[hArg]C-NH2 / II: Ac-C[tBuAla]PE[dK]PYCFADPY[Nle]CA-NH2 / III: Ac-C[tBuAla]PE[dK]PYCFADPY[Nle]CA-NH2 (linker I:4-I:11-I:18, II:1-II:8-II:15, III:1-III:8-III:15 via TATA; linker I:N-II:5-III:5 via X1) [BCY13050]
Result: 3.3

Task: Give half-life for the following substance: I: Ac-C[tBuAla]PE[dK]PYCFADPY[Nle]CA-NH2 / II: Ac-C[tBuAla]PE[dK]PYCFADPY[Nle]CA-NH2 / III: C[Hyp]LVNPLCL[ξDip]P[dD]WTC-NH2 (linker I:1-I:8-I:15, II:1-II:8-II:15, III:1-III:8-III:15 via TATA; linker I:5-II:5-III:N via X3) [BCY13048]
Result: 3.8

====

PROTOCOL: Pharmacokinetics in CD1 mice
Assay type: in vivo, CD-1 mice
EXPERIMENTAL_CONDITIONS: male, CD-1, mouse, plasma; 5.5 mg/kg IV, n=3; read-out: terminal plasma half life (converted)
Starred links: 1 amine or outer side, 2 acyl side, 3 side chain; linkers in the order of their positions; H or OH if unused. Positions of bridges follow the written chain, without caps; N, C: chain ends. Non-standard residues stand in square brackets, D forms with d. Chains are numbered I, II in the order given. X1 = O=C(CCOCCOCCOCCN(CCOCCOCCOCCn1cc(CCC(=O)[*:2])nn1)CCOCCOCCOCCn1cc(CCC(=O)[*:3])nn1)[*:1]; TATA = O=C(CC[*:1])N1CN(C(=O)CC[*:2])CN(C(=O)CC[*:3])C1; d1Nal = N[C@H](Cc1cccc2ccccc12)C(=O)O; Hyp = O=C(O)[C@@H]1C[C@@H](O)CN1; hArg = N=C(N)NCCCC[C@H](N)C(=O)O; tBuAla = CC(C)(C)C[C@H](N)C(=O)O; Nle = CCCC[C@H](N)C(=O)O
PARAMETER_MEASURED: half-life (h)
Give the value, in units of h, as a plain number.

Task: Give half-life for the following substance: I: A[hArg]DC[Hyp]LVNPLCLEP[d1Nal]WTC-NH2 / II: Ac-C[tBuAla]PE[dK]PYCFADPY[Nle]CA-NH2 / III: Ac-C[tBuAla]PE[dK]PYCFADPY[Nle]CA-NH2 (linker I:4-I:11-I:18, II:1-II:8-II:15, III:1-III:8-III:15 via TATA; linker I:N-II:5-III:5 via X1) [BCY13272]
Result: 2.9

====

PROTOCOL: Pharmacokinetics in SD rats
Assay type: in vivo
EXPERIMENTAL_CONDITIONS: male, SD, rat, plasma; IV Inf (15 minutes); read-out: Clp
Starred links: 1 amine or outer side, 2 acyl side, 3 side chain; linkers in the order of their positions; H or OH if unused. Positions of bridges follow the written chain, without caps; N, C: chain ends. Non-standard residues stand in square brackets, D forms with d. Chains are numbered I, II in the order given. ξ: configuration not given here. X1 = O=C(CCOCCOCCOCCN(CCOCCOCCOCCn1cc(CCC(=O)[*:2])nn1)CCOCCOCCOCCn1cc(CCC(=O)[*:3])nn1)[*:1]; X3 = O=C(CCc1cn(CCOCCOCCOCCN(CCOCCOCCOCCC(=O)[*:3])CCOCCOCCOCCn2cc(CCC(=O)[*:2])nn2)nn1)[*:1]; TATA = O=C(CC[*:1])N1CN(C(=O)CC[*:2])CN(C(=O)CC[*:3])C1; ξDip = NC(C(=O)O)C(c1ccccc1)c1ccccc1; Hyp = O=C(O)[C@@H]1C[C@@H](O)CN1; hArg = N=C(N)NCCCC[C@H](N)C(=O)O; tBuAla = CC(C)(C)C[C@H](N)C(=O)O; Cba = N[C@@H](CC1CCC1)C(=O)O; Nle = CCCC[C@H](N)C(=O)O; ξP = O=C(O)C1CCCN1
PARAMETER_MEASURED: clearance (mL/min/kg)
Give the value, in units of mL/min/kg, as a plain number.

[
  {
    "SUBSTANCE": "I: Ac-C[tBuAla]PE[dK]PYCFADPY[Nle]CA-NH2 / II: Ac-C[tBuAla]PE[dK]PYCFADPY[Nle]CA-NH2 / III: C[Hyp]LVNPLCL[ξDip]P[dD]WTC-NH2 (linker I:1-I:8-I:15, II:1-II:8-II:15, III:1-III:8-III:15 via TATA; linker I:5-II:5-III:N via X3) [BCY13048]",
    "PARAMETER_MEASURED": "clearance",
    "MEAS_VALUE": 11
  }
]

Read the next record carefully.
Task: Give clearance for the following substance: I: A[hArg]DC[Hyp][Cba]VN[ξP]LCLHP[dD]W[hArg]C-NH2 / II: Ac-C[tBuAla]PE[dK]PYCFADPY[Nle]CA-NH2 / III: Ac-C[tBuAla]PE[dK]PYCFADPY[Nle]CA-NH2 (linker I:4-I:11-I:18, II:1-II:8-II:15, III:1-III:8-III:15 via TATA; linker I:N-II:5-III:5 via X1) [BCY13050]
Result: 11

====

SYSTEM_TESTED: CD137 (Homo sapiens)
Sequence (Q07011 24-255): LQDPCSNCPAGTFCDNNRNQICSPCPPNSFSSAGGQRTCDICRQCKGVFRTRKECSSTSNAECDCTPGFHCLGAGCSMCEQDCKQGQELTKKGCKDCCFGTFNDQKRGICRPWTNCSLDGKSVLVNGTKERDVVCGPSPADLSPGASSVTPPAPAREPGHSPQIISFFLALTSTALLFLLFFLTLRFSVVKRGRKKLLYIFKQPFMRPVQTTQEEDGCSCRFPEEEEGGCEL
PROTOCOL: CD137 reporter assay (Promega, Jurkat cells) in co-culture with EphA2-expressing tumor cells (A549, PC3, HT29)
Format: cell-based
Parameters: host or cells: Jurkat reporter cells
EXPERIMENTAL_CONDITIONS: EC50, CD137 reporter coculture assay with PC3 tumor cells
Starred links: 1 amine or outer side, 2 acyl side, 3 side chain; linkers in the order of their positions; H or OH if unused. Positions of bridges follow the written chain, without caps; N, C: chain ends. Non-standard residues stand in square brackets, D forms with d. Chains are numbered I, II in the order given. X1 = O=C(CCOCCOCCOCCN(CCOCCOCCOCCn1cc(CCC(=O)[*:2])nn1)CCOCCOCCOCCn1cc(CCC(=O)[*:3])nn1)[*:1]; TATA = O=C(CC[*:1])N1CN(C(=O)CC[*:2])CN(C(=O)CC[*:3])C1; Hyp = O=C(O)[C@@H]1C[C@@H](O)CN1; hArg = N=C(N)NCCCC[C@H](N)C(=O)O; tBuAla = CC(C)(C)C[C@H](N)C(=O)O; NMeA = CN[C@@H](C)C(=O)O; Nle = CCCC[C@H](N)C(=O)O
pEC50: recorded values
FYI, pEC50 means -log10 of a concentration in mol per litre.

Task: Give pEC50 for the following substance: I: [dA]EDC[Hyp]LVNPLCLEP[dD]WTC-NH2 / II: Ac-C[tBuAla]PE[dK]PYCFADPY[Nle]CA-NH2 / III: Ac-C[tBuAla]PE[dK]PYCFADPY[Nle]CA-NH2 (linker I:4-I:11-I:18, II:1-II:8-II:15, III:1-III:8-III:15 via TATA; linker I:N-II:5-III:5 via X1) [BCY13280]
Result: 9.72

Task: Give pEC50 for the following substance: I: A[hArg]DC[Hyp]LVNPLCLHP[dD]WTC-NH2 / II: Ac-C[tBuAla]PE[dK]PYCFADPY[Nle]CA-NH2 / III: Ac-C[tBuAla]PE[dK]PYCFADPY[Nle]CA-NH2 (linker I:4-I:11-I:18, II:1-II:8-II:15, III:1-III:8-III:15 via TATA; linker I:N-II:5-III:5 via X1) [BCY13043]
Result: 9.96

Task: Give pEC50 for the following substance: I: [NMeA][hArg]DC[Hyp]LVNPLCLEP[dD]WTC-NH2 / II: Ac-C[tBuAla]PE[dK]PYCFADPY[Nle]CA-NH2 / III: Ac-C[tBuAla]PE[dK]PYCFADPY[Nle]CA-NH2 (linker I:4-I:11-I:18, II:1-II:8-II:15, III:1-III:8-III:15 via TATA; linker I:N-II:5-III:5 via X1) [BCY13276]
Result: 10.00
